System Name: Nucleotide-binding oligomerization domain-containing protein 2 (Homo sapiens, UniProt Q9HC29)
Sequence (Q9HC29 whole entry, the tested form may be a part): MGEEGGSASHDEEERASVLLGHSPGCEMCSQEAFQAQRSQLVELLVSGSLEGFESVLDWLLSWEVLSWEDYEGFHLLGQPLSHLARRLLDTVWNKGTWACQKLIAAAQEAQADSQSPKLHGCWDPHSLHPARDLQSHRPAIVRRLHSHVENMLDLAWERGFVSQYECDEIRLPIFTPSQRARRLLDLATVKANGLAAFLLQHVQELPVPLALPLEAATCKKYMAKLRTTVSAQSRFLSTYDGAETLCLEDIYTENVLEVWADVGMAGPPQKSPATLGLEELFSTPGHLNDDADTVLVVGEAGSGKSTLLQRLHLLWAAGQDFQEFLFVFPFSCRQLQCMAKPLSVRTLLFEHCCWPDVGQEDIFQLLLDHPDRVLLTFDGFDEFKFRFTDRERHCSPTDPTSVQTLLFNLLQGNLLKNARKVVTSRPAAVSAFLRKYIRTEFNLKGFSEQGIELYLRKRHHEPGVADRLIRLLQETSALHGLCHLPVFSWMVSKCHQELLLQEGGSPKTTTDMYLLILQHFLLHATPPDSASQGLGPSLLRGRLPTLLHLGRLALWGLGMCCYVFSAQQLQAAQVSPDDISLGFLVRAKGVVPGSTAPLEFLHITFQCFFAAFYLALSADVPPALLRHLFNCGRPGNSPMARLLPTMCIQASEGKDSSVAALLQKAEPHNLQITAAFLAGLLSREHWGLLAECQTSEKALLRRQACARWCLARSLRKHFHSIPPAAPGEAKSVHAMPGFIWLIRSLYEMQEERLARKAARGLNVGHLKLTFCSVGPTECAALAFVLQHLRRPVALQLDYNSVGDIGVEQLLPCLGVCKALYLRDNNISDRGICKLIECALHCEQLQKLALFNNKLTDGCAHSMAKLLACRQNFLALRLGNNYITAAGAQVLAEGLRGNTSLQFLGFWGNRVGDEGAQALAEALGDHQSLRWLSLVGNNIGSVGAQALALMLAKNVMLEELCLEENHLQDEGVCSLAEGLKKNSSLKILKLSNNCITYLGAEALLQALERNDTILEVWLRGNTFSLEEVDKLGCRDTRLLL
Assay Procedure: Agonist activity at NOD2 receptor (unknown origin) expressed in HEK-Blue cells assessed as NF-kappaB transcriptional activity at 20 uM after 18 hrs by secreted embryonic alkaline phosphatase reporter gene assay relative to untreated control
Type: cell-based
Measured Quantity: fold change (FC)

[[record]]
compound = "CCOC(=O)CC[C@@H](NC(=O)[C@H](C)NC(=O)CNC(=O)C1Cc2ccccc2N1)C(=O)OCC (some centres undefined)"
recorded_value = 3.17

[[record]]
compound = "CCOC(=O)CC[C@@H](NC(=O)[C@H](C)NC(=O)CNC(=O)c1cc2ccccc2n1Cc1ccc(F)cc1)C(=O)OCC"
recorded_value = 2.8

[[record]]
compound = "CCOC(=O)CC[C@@H](NC(=O)[C@H](C)NC(=O)CNC(=O)c1cc2cc(-c3ccccc3)ccc2[nH]1)C(=O)OCC"
recorded_value = 10.4

[[record]]
compound = "CCOC(=O)CC[C@@H](NC(=O)[C@H](C)NC(=O)CNC(=O)c1cc2c(-c3ccccc3)cccc2[nH]1)C(=O)OCC"
recorded_value = 2.95

[[record]]
compound = "CCOC(=O)CC[C@@H](NC(=O)[C@H](C)NC(=O)CNC(=O)c1ccc[nH]1)C(=O)OCC"
recorded_value = 1.08

[[record]]
compound = "CCOC(=O)CC[C@@H](NC(=O)[C@H](C)NC(=O)CNC(=O)c1cc2cc(Br)ccc2[nH]1)C(=O)OCC"
recorded_value = 4.58

[[record]]
compound = "CCOC(=O)CC[C@@H](NC(=O)[C@H](C)NC(=O)CNC(=O)c1cc2ccc(-c3ccccc3)cc2[nH]1)C(=O)OCC"
recorded_value = 11.2

[[record]]
compound = "CCOC(=O)CC[C@@H](NC(=O)[C@H](C)NC(=O)CNC(=O)c1cc2ccccc2[nH]1)C(=O)OCC"
recorded_value = 5.2

[[record]]
compound = "C[C@H](NC(=O)CNC(=O)c1cc2ccccc2[nH]1)C(=O)N[C@H](CCC(=O)O)C(=O)O"
recorded_value = 2.1

[[record]]
compound = "C[C@H](NC(=O)CNC(=O)c1cc2ccccc2[nH]1)C(=O)N[C@H](CCC(=O)OCc1ccccc1)C(=O)OCc1ccccc1"
recorded_value = 8.82

[[record]]
compound = "CCOC(=O)CC[C@@H](NC(=O)[C@H](C)NC(=O)CNC(=O)c1cc2cc(F)ccc2[nH]1)C(=O)OCC"
recorded_value = 3.02

[[record]]
compound = "CCOC(=O)CC[C@@H](NC(=O)[C@H](C)NC(=O)CNC(=O)c1cc2cccc(-c3ccccc3)c2[nH]1)C(=O)OCC"
recorded_value = 6.51

[[record]]
compound = "CCOC(=O)CC[C@@H](NC(=O)[C@H](C)NC(=O)CCNC(=O)c1cc2ccccc2[nH]1)C(=O)OCC"
recorded_value = 1.41

[[record]]
compound = "CCOC(=O)CC[C@@H](NC(=O)[C@H](C)NC(=O)CNC(=O)C1Cc2ccccc2N1C(=O)OC(C)(C)C)C(=O)OCC (some centres undefined)"
recorded_value = 2.58

[[record]]
compound = "CC(=O)N[C@H]1C(O)O[C@H](CO)[C@@H](O)[C@@H]1O[C@H](C)C(=O)N[C@@H](C)C(=O)N[C@H](CCC(=O)O)C(N)=O (some centres undefined) [MURAMYL DIPEPTIDE]"
recorded_value = 11.5

[[record]]
compound = "CCOC(=O)CC[C@@H](NC(=O)[C@H](C)NC(=O)CNC(=O)C(=O)Nc1ccccc1)C(=O)OCC"
recorded_value = 1.15

[[record]]
compound = "CCOC(=O)CC[C@@H](NC(=O)[C@H](C)NC(=O)CNC(=O)c1c[nH]c2ccccc12)C(=O)OCC"
recorded_value = 1.22

[[record]]
compound = "CCOC(=O)CC[C@@H](NC(=O)[C@H](C)NC(=O)CNC(=O)c1cc2ccccc2n1C)C(=O)OCC"
recorded_value = 2.14

[[record]]
compound = "CCOC(=O)CC[C@@H](NC(=O)[C@H](C)NC(=O)CNC(=O)/C=C/c1ccccc1)C(=O)OCC"
recorded_value = 7.37

